Data credit: patent US12522582B2

test system: HSV-2 virus (MS strain); test: HSV qPCR Assay (HSV replication in ARPE-19 cells); conditions: Human alphaherpesvirus 2, ARPE-19, read-out: EC50-HSV2-qPCR
Answer each item with its documented EC50.
Respond with the figure and its unit, in that order.

Problem: May I ask what EC50 has been recorded for NS(=O)(=O)c1ccc2c(c1)N(C(=O)C1Cc3ccc(-c4ncccc4F)cc3C1)CC2 (stereo not shown) ?
Result: 22 nM

Problem: May I ask what EC50 has been recorded for C[C@@H]1Cc2ccc(S(N)(=O)=O)cc2N1C(=O)[C@@H]1Cc2ccc(-c3ccccn3)cc2C1 ?
Result: 4.9 nM

Problem: May I ask what EC50 has been recorded for C[C@H]1c2ccc(-c3ccccn3)cc2C[C@@H]1C(=O)N1CCc2ccc(S(N)(=O)=O)cc21 ?
Result: 3.9 nM

Problem: May I ask what EC50 has been recorded for C[C@H]1c2ccc(-c3ccccn3)cc2C[C@@H]1C(=O)N1CCc2cc(F)c(S(N)(=O)=O)cc21 ?
Result: 1.3 nM

Problem: May I ask what EC50 has been recorded for NS(=O)(=O)c1ccc2c(c1)N(C(=O)C1Cc3ccc(-c4ccccc4F)cc3C1)CC2 (stereo not shown) ?
Result: 25.8 nM

Problem: May I ask what EC50 has been recorded for NS(=O)(=O)c1ccc2c(c1)N(C(=O)C1Cc3ccc(-c4cccc(F)n4)cc3C1)CC2 (stereo not shown) ?
Result: 14.3 nM

Problem: May I ask what EC50 has been recorded for NS(=O)(=O)c1cc2c(cc1F)C[C@@H](CF)N2C(=O)[C@@H]1Cc2ccc(-c3ccccn3)cc2C1 ?
Result: 0.56 nM

* * *

tested on: human cryopreserved hepatocytes; test: Stability Assay in Cryopreserved Hepatocytes (human); format: in vitro ADME; details: 1 μM, calculated from half-life using the well-stirred model
readout_type: Predicted human hepatic clearance
Respond with the figure and its unit, in that order.

Problem: May I ask what Predicted human hepatic clearance has been recorded for NS(=O)(=O)c1ccc2c(c1)N(C(=O)[C@@H]1Cc3ccc(-c4ccccn4)cc3C1)CC2 ?
Result: 2.33 mL/min/kg

Problem: May I ask what Predicted human hepatic clearance has been recorded for C[C@@H]1Cc2cc(F)c(S(N)(=O)=O)cc2N1C(=O)[C@@H]1Cc2ccc(-c3cc(F)ccc3F)cc2C1 ?
Result: 2.5 mL/min/kg

Problem: May I ask what Predicted human hepatic clearance has been recorded for NS(=O)(=O)c1ccc2c(c1)N(C(=O)[C@@H]1Cc3ccc(-c4cccnc4)cc3C1)CC2 ?
Result: 7.5 mL/min/kg

Problem: May I ask what Predicted human hepatic clearance has been recorded for C[C@H]1Cc2cc(F)c(S(N)(=O)=O)cc2N1C(=O)[C@@H]1Cc2ccc(-c3ccccn3)cc2C1 ?
Result: 3.33 mL/min/kg

Problem: May I ask what Predicted human hepatic clearance has been recorded for C[C@@H]1Cc2cc(F)c(S(N)(=O)=O)cc2N1C(=O)[C@H]1Cc2cc(-c3ccccn3)ccc2O1 ?
Result: 0.83 mL/min/kg

Problem: May I ask what Predicted human hepatic clearance has been recorded for NS(=O)(=O)c1cc2c(cc1F)CCN2C(=O)[C@@H]1Cc2ccc(-c3cc(F)ccc3F)cc2C1 ?
Result: 5.33 mL/min/kg

Problem: May I ask what Predicted human hepatic clearance has been recorded for NS(=O)(=O)c1ccc2c(c1)N(C(=O)[C@@H]1Cc3ccc(-c4ncccc4F)cc3C1)CC2 ?
Result: 0.83 mL/min/kg
